Test: qHTS assay to identify small molecule antagonists of the estrogen related receptor (ERR) signaling pathway from Tox21 library (AID 1224848); further: nearly all actives have a fitted effect of over 50% in size
Settings: ERR reporter cell line, luciferase antagonist mode, 18 h; series mostly up to 92.4 µM
Results filed as inconclusive are left out. Active and inactive are the calls of the source. The call rests on the fitted dose curve; in most records, active means well fitted inhibition curve with a large enough effect in the repeat runs; inconclusive means weak or mixed curves; inactive means no such curve, though single readings can be large or run the other way.
// classify into active, inactive

# count of solved cases: 6
CC(COCCO)OCCO (configuration not stated) = inactive
CC(C)C[C@H]1C(=O)N2CCC[C@H]2[C@]2(O)O[C@](NC(=O)[C@@H]3C=C4c5cccc6[nH]c(Br)c(c56)C[C@H]4N(C)C3)(C(C)C)C(=O)N12 = active
C1CCCNCCC1 = inactive
Cn1c(=O)cc(Oc2ccc(F)cc2F)c2cnc(NCC(C)(C)O)nc21 = active
C=CC(=O)OCCOc1ccccc1 = inactive
CCOC(=O)NCCOc1ccc(Oc2ccccc2)cc1 = active

Let us examine a further case.
Please let me know the test result on file for C=CC(=O)OCCOCCOC(=O)C=C .
inactive

----------
Molecular target: Estrogen receptor (Homo sapiens)
Experiment: qHTS assay to identify small molecule antagonists of the estrogen receptor alpha (ER-alpha) signaling pathway (AID 743069); further: potency means the concentration at half of the fitted maximal effect
Settings: HEK293 ER-alpha-UAS-bla, beta-lactamase ratio, antagonist mode; series mostly up to 69.4 µM
The source made the active and inactive calls. Calls follow the shape of the dose curve; as a rule, active = well fitted curve in the direction sought with a large enough effect in the signal ratio in the repeat runs (not every such curve was filed as active); inconclusive = weak or mixed curves, or effect the other way; inactive = no such curve, though single readings can be large or run the other way; the % refers to the signal ratio.
RECORDED_ENDPOINT: Potency

CC[N+](C)(CC)CCOC(=O)C(O)(c1ccccc1)C1CCCCC1 (centres undefined) = inactive
CCCCCCCN = inactive
CNC(=O)CN(CCN(CCN(CC(=O)[O-])CC(=O)NC)CC(=O)[O-])CC(=O)[O-].O.[Gd+3] = inactive
CCCCC(CC)COC(=O)COc1ccc(Cl)cc1Cl (centres undefined) = inactive

Batch lookup, Potency per entry.
1. C=CC(=O)OCCOCCOC(=O)C=C
2. O=C1[C@H]2CCCC[C@H]2C(=O)N1CCCCN1CCN(c2nsc3ccccc23)CC1
3. CC1OC(=O)C(C)OC1=O (centres undefined)

["61.9 µM [inconclusive] (active)", "inactive", "inactive"]

Batch lookup, Potency per entry.
1. C[Si](C)(CCCN)O[Si](C)(C)CCCN
2. COS(=O)(=O)C(F)(F)F

1: inactive; 2: inactive

----------
Test: qHTS assay for small molecule agonists of the p53 signaling pathway (AID 651631); further: nearly all actives have a fitted effect of over 15% in size
Settings: HCT-116 p53RE-bla reporter, beta-lactamase FRET ratio, 16 h; series mostly up to 73.3 µM
Inconclusive results are not listed. Calls of active or inactive are those of the source. Calls follow the shape of the full dose curve.
// classify into y = active, n = inactive

# count of solved cases: 2
NC(=O)C(c1ccccc1)(c1ccccc1)[C@@H]1CCN(CCc2ccc3c(c2)CCO3)C1 = n
Nc1cc(C(=O)O)c(O)c(S(=O)(=O)O)c1 = n

Please let me know the test result on file for CNC(=O)CN(CCN(CCN(CC(=O)[O-])CC(=O)NC)CC(=O)[O-])CC(=O)[O-].O.[Gd+3] .
n

Please let me know the test result on file for CCCCCCCCCCCC(=O)OC[C@@H](O)[C@H]1OC[C@H](OCCO)[C@H]1OCCO .
n

Please let me know the test result on file for CC/C=C\CCOC(=O)CC .
n

Please let me know the test result on file for CCCCc1ncc(/C=C(\Cc2cccs2)C(=O)O)n1Cc1ccc(C(=O)O)cc1 .
n

Please let me know the test result on file for Cc1ncc(CO)c(C=O)c1O .
n

Please let me know the test result on file for CC1OC(=O)C(C)OC1=O (centres undefined) .
n

Please let me know the test result on file for C=CC(=O)OCCOc1ccccc1 .
y

Please let me know the test result on file for COc1ccc(-c2nc3ccc(C4=NNC(=O)CC4C)cc3[nH]2)cc1 (centres undefined) .
y

Please let me know the test result on file for CCCCCCCCO[C@@H]1O[C@H](CO)[C@@H](O)[C@H](O)[C@H]1O .
n

Please let me know the test result on file for c1ccc(-c2ccccn2)nc1 .
n

Please let me know the test result on file for C#CCN(C)CCCOc1ccc(Cl)cc1Cl .
n

Please let me know the test result on file for CCCCc1nc2cccnc2n1Cc1ccc(-c2ccccc2-c2nnn[nH]2)cc1 .
n

----------
Experiment: qHTS assay to identify small molecule antagonists of the progesterone receptor (PR) signaling pathway - cell viability counter screen (AID 1346798); further: nearly all actives have a fitted effect of over 50% in size
Conditions: PR-UAS-bla HEK293T viability, CellTiter-Glo luminescence, 16 h; series mostly up to 92.4 µM
Inconclusive results are not listed. The source made the active and inactive calls. The call rests on the fitted dose curve; in most records, active means well fitted cell-killing curve with a large enough effect in the repeat runs; inconclusive means weak or mixed curves, or effect the other way; inactive means no such curve, though single readings can be large or run the other way.
// classify into y (active), n (inactive)

O=C(NCC1CN(c2ccc(N3CCOCC3=O)cc2)C(=O)O1)c1ccc(Cl)s1 (centres undefined) = n
Cc1ccccc1S(=O)(=O)O = n
CCOC(=O)c1cccnc1 = n
CCCCC(=O)OCC(=O)[C@H]1[C@H](C)C[C@H]2[C@@H]3C[C@H](F)C4=CC(=O)C=C[C@]4(C)[C@@]3(F)[C@@H](O)C[C@@]21C = n
CC(=O)OC[C@H]1O[C@@H](n2ncc(=O)[nH]c2=O)[C@H](OC(C)=O)[C@@H]1OC(C)=O = y
C/C=C(/C(=C/C)c1ccc(OC(C)=O)cc1)c1ccc(OC(C)=O)cc1 = n

Let us examine a further case.
Please let me know the test result on file for NCCCN1CCOCC1 .
n

----------
Assay: qHTS assay to identify small molecule agonists of the estrogen receptor beta (ER-beta) signaling pathway - cell viability counter screen (AID 1259380); further: nearly all actives have a fitted effect of over 30% in size; further: potency means the concentration at half of the fitted maximal effect
Conditions: ER-beta-bla HEK293T viability, CellTiter-Glo luminescence, 16 h; series mostly up to 92.4 µM
Results filed as inconclusive are left out. The source made the active and inactive calls. Calls follow the shape of the dose curve; as a rule, active = well fitted cell-killing curve with a large enough effect in the repeat runs; inconclusive = weak or mixed curves, or effect the other way; inactive = flat fitted curve, though single readings scatter.
RECORDED_ENDPOINT: Potency

Before answering, review these 5 worked examples.
CCOC(=O)C(O)c1ccccc1 (stereo unspecified) = inactive
O=C1OC(CN2CCOCC2)CN1/N=C/c1ccc([N+](=O)[O-])o1 (stereo unspecified) = inactive
CCCCCCOC(=O)NC(=N)c1ccc(NCc2nc3cc(C(=O)N(CCC(=O)OCC)c4ccccn4)ccc3n2C)cc1 = 11.9 µM (active)
Nc1ccc(N)c2c1C(=O)c1ccccc1C2=O = 7.7 µM (active)
NCCCN1CCOCC1 = inactive

Batch lookup, Potency per entry.
1. CCN(CC)c1ccc2c(-c3ccccc3C(=O)O)c3ccc(=[N+](CC)CC)cc-3oc2c1
2. Cc1cccc(Nc2ccccc2)c1
3. CCCOC(C(=O)OC1CCN(C)CC1)(c1ccccc1)c1ccccc1

8.63 µM (active)
inactive
26.6 µM (active)

Batch lookup, Potency per entry.
1. C=C1C(=C/C=C2\CCC[C@]3(C)[C@@H]([C@H](C)/C=C/[C@@H](O)C4CC4)CC[C@@H]23)C[C@@H](O)C[C@@H]1O
2. Nc1cc(C(=O)O)c(O)c(S(=O)(=O)O)c1
3. CCN(CC)CCNC(=O)c1cc(Br)c(N)cc1OC
4. COCCCN1CCC(NC(=O)c2cc(Cl)c(N)c3c2OCC3)CC1
5. COc1cc(Cl)c(OC)cc1N
6. Cc1nn(C)c(Oc2ccccc2)c1/C=N/OCc1ccc(C(=O)OC(C)(C)C)cc1
7. Cn1c(=O)cc(Oc2ccc(F)cc2F)c2cnc(NCC(C)(C)O)nc21
8. O=C1OC(=O)C2C3C=CC(C3)C12 (stereo unspecified)

["26.6 µM (active)", "inactive", "inactive", "inactive", "inactive", "inactive", "inactive", "inactive"]

Batch lookup, Potency per entry.
1. Nc1ccc(S(=O)(=O)Nc2ccccc2)cc1
2. CCCCCCCC#N
3. NCc1ccccc1Sc1ccccc1CO
4. CCCCC
5. O=C1CCC(=O)O1
6. CC(C)C[C@H]1C(=O)N2CCC[C@H]2[C@]2(O)O[C@](NC(=O)[C@@H]3C=C4c5cccc6[nH]c(Br)c(c56)C[C@H]4N(C)C3)(C(C)C)C(=O)N12
7. NCC(=O)CCC(=O)O
8. CCCCCCCCCCCCCCCCCCOS(=O)(=O)O

inactive
inactive
inactive
inactive
inactive
inactive
inactive
48.6 µM (active)

----------
Target: Estrogen receptor beta (Homo sapiens) (UniProt Q92731)
Sequence (Q92731 whole entry, looked up): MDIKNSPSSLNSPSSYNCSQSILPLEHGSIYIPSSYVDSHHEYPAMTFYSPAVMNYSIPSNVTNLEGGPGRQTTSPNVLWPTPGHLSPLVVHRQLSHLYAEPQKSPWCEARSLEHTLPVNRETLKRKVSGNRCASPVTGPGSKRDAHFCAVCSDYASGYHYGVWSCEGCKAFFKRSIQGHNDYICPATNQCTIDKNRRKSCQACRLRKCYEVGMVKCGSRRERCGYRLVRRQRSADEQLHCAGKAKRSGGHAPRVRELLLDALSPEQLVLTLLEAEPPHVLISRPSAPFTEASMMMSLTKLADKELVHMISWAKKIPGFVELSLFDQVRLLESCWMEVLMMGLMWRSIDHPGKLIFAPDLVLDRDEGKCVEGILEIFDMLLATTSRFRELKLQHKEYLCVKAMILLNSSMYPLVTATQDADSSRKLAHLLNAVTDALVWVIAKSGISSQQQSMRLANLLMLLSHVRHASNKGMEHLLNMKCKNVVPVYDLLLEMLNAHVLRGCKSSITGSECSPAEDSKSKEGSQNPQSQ
Assay: qHTS assay to identify small molecule antagonists of the estrogen receptor beta (ER-beta) signaling pathway (AID 1259378)
Details: ER-beta-UAS-bla HEK293T, beta-lactamase FRET ratio, 16 h; series mostly up to 92.4 µM
Records with an inconclusive call do not appear. Calls of active or inactive are those of the source. Calls follow the shape of the dose curve; as a rule, active = well fitted inhibition curve with a large enough effect in the signal ratio in the repeat runs (not every such curve was filed as active); inconclusive = weak or mixed curves, or effect the other way; inactive = no such curve, though single readings can be large or run the other way; the % refers to the signal ratio.
// classify into True (active), False (inactive)

# count of solved cases: 3
CN(C)CCN(Cc1ccccc1)c1ccccn1 = False
CO[C@@H]1[C@H](OC(=O)/C=C/C=C/C=C/C=C/C(=O)O)CC[C@]2(CO2)[C@H]1[C@@]1(C)O[C@@H]1CC=C(C)C = False
Cc1ccc(N=Nc2c(O)c(C(=O)O)cc3ccccc23)c(S(=O)(=O)O)c1 = False

Please let me know the test result on file for CCCn1cnc2c1c(=O)n(CCCCC(C)=O)c(=O)n2C .
False

Please let me know the test result on file for CN1CCC(N(Cc2cccs2)c2ccccc2)CC1 .
False
